test system: transient receptor potential cation channel C4 beta (TRPC4), mouse; test: TRPC4 cation channel opening, second retest – cell-based, second round, Fluo4, HEK293 TRPC4beta/mu-opioid, 1 µM, confirmation (AID 2461); details: Fluo4 calcium fluorescence, at 1 µM
Activity calls are given as the source filed them.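 How the source made its calls: active means primary screen active and over 50% activation in each of two duplicate runs; inactive means the rest.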
A correct response names exactly one class from active, inactive

CCOC(=O)CCSc1nc(C)cc(C(F)(F)F)c1C#N ... inactive
c1ccc(Cn2nnnc2C(c2cccnc2)N2CCN(C3CCCCC3)CC2)cc1 (stereo unspecified) ... inactive
Oc1cccc(C(=S)N2CCN(Cc3ccccc3)CC2)c1 ... inactive
O=C1CC2(CCN(S(=O)(=O)c3ccccc3)CC2)Oc2ccccc21 ... inactive
CCCCn1c(NCc2ccc(N(C)C)cc2)nc2ccccc21 ... inactive

For the next question, use this compound.
Request: I would be grateful if you could indicate the recorded call for CC(C)C1CC(CCNCc2ccc(N(C)C)cc2)(c2ccccc2)CCO1 (stereo unspecified) .
Response: inactive

====

target: Short transient receptor potential channel 4 (Mus musculus) (UniProt Q9QUQ5); experiment: calcium flux activators in TRPC4/5HT1a cells, counter-screen for TRPC4 activator project, cell-based, second counter screen, HEK293 TRPC4/5HT1a, Fluo-4 (AID 434977); conditions: Fluo-4 calcium flux, at 10 µM
The source made the active and inactive calls.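 How the source made its calls: active means calcium signal rise above buffer-control mean plus 5 SD in both duplicates, and also a hit in the primary screen; inactive means the rest.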
A correct response names exactly one class from 1 (active), -1 (inactive)

Examples with answers:
COc1ccc(CNCc2cn(-c3cccc(F)c3)nc2-c2ccc(C)o2)cc1 ... -1
COc1ccc(/C=C2\SC(=S)N(C(Cc3ccccc3)C(=O)O)C2=O)cc1 (centres undefined) ... -1
COc1ccc(-n2cc(CNCc3cccnc3)c(-c3cccc(F)c3)n2)cc1 ... -1

Request: I would be grateful if you could indicate the recorded call for CCCCCC[N+](C)(C)CC/C=C1/c2ccccc2Sc2ccc(Cl)cc21 .
Response: -1

Request: I would be grateful if you could indicate the recorded call for OCCNc1nc(NCc2ccccc2)c2ccccc2n1 .
Response: -1

Request: I would be grateful if you could indicate the recorded call for C(=N\N(Cc1ccccc1)c1ccccc1)/c1cccnc1 .
Response: -1

====

assay: nonspecific calcium rise without TRPC4 – cell-based, HEK293 mu-opioid receptor line, counter-screen for TRPC4 activator project, confirmation (AID 449723); details: HEK293 mu-opioid cells, Fluo-4 calcium fluorescence, at 10 µM;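 further: counter screen cells carry the mu-opioid receptor alone and lack TRPC4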
Calls of active or inactive are those of the source.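 How the source made its calls: active means hit in primary screen, with calcium signal over 5 SD above buffer well mean in both duplicates; inactive means the rest.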
A correct response names exactly one class from active, inactive

Examples with answers:
O=C(Nc1ccc(Cl)c(Cl)c1)N(CCCN1CCOCC1)Cc1cccs1 ... inactive
CC(C)OC(=O)C1CC=CCC1C(=O)Nc1ccc(Cl)cc1 (stereo unspecified) ... inactive
Cc1ccccc1C(=O)NNC(=S)NC(=O)c1cccs1 ... active
c1ccc(Cc2nc3ccccc3n2Cc2ccccc2)cc1 ... inactive

Request: I would be grateful if you could indicate the recorded call for COc1ccc(Cc2noc(CN(C)CC3CCN(Cc4ccccc4)CC3)n2)cc1OC .
Response: inactive

Request: I would be grateful if you could indicate the recorded call for Cc1sc2ncnc(SCC(=O)N(C)C3CCS(=O)(=O)C3)c2c1C (stereo unspecified) .
Response: inactive

====

test: serotonin-gated TRPC4 signal block – cell-based, second counter screen, HEK293 TRPC4/5HT1a, Fluo-4, counter-screen for TRPC4 inhibitor project, confirmation (AID 434978); conditions: Fluo-4 calcium flux, at 10 µM, serotonin added to trigger calcium flux
Active and inactive are the calls of the source.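 How the source made its calls: active means primary screen active whose calcium signal fell more than 3 SD beyond the full-serotonin control mean in both duplicate plates; inactive means the rest.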
A correct response names exactly one class from True for active, False for inactive

COc1ccc(C(CNc2ccc(C(F)(F)F)cn2)N(C)C)cc1OC (centres undefined) ... False
COc1ccccc1N1CCN(CC(C)N(C(=O)C2CCCCC2)c2ccccn2)CC1 (centres undefined) ... True
CC(=O)c1ccc(N2CCN(C(=O)C3CCN(S(=O)(=O)c4ccc5c(c4)CC(C)N5C(=O)C4CC4)CC3)CC2)cc1 (centres undefined) ... False
Cc1cc([N+](=O)[O-])ccc1NCc1ccccc1 ... False

Request: I would be grateful if you could indicate the recorded call for Cc1ccc(C(=O)NNC(=O)C2CSC3(C)CCC(=O)N23)cc1 (centres undefined) .
Response: False

Request: I would be grateful if you could indicate the recorded call for CC1CC(C)CN(CCCNS(=O)(=O)c2cc(Br)cc3c2N(C(=O)C2CC2)CC3)C1 (centres undefined) .
Response: False

Request: I would be grateful if you could indicate the recorded call for CCCC[n+]1c2ccccc2cc2ccccc21 .
Response: True

From: PubChem BioAssay
